Target: Cytochrome P450 2D6 (Homo sapiens)
Experiment: Cytochrome panel assay with activity outcomes; on activity, negative = inhibition: on the % scale 0 is the no-effect control and ±100 the full control effect
Settings: recombinant CYP, pro-luciferin dealkylation, luminescence, p450-cyp2d6; series mostly up to 57.1 µM
Hit rate of the full screen: of about 16,000 compounds, about 2,600 (16%) were called active. Not shown: some 20% with an inconclusive outcome. Not all results are given here.
experimental-endpoint: activity, negative = inhibition

Recorded results for 5 compounds are shown here.
1. COC(=O)[C@@H]1O[C@@H](c2c(OC)c(OC)c(C)c(OC)c2OC)[C@H](C)[C@@H](O)[C@@H]1C | 15.2% [at 11.4 µM] (inactive)
2. Cc1ccc2nc(-c3ccc(NC(=O)c4ccc(N)cc4)c(S(=O)(=O)O)c3)sc2c1 | 10.5% [at 11.4 µM] (inactive)
3. Cn1c(=S)c2[nH]c(SCc3cccnc3)nc2n(C)c1=O | 14% [at 11.4 µM] (inactive)
4. O=C1C2=CC[C@@H]3C(=O)N(c4ccc(F)cc4F)C(=O)[C@H]3[C@H]2[C@H](O)[C@H]2O[C@H]12 | 6.42% [at 11.4 µM] (inactive)
5. NCCSc1nc(-c2ccccc2)c(-c2ccccc2)o1 | 5.57% [at 11.4 µM] (inactive)

Give its activity, negative = inhibition value. Item: O=S(=O)(O)c1ccc2cc(N=Nc3cc(S(=O)(=O)O)c4cccnc4c3O)ccc2c1
-2.47% [at 11.4 µM] (inactive)

Now try O=C(O)[C@@H]1CCCN1Cc1cc2ccccc2c2ccccc12 .
10.3% [at 11.4 µM] (inactive)

Now try O=C(O)CC[C@@H](C(=O)O)N1C(=O)[C@@H]2[C@@H]3CC[C@H](C3)[C@@H]2C1=O .
13.3% [at 11.4 µM] (inactive)

---

Target: Cytochrome P450 2D6 (Homo sapiens)
Assay: Cytochrome panel assay with activity outcomes
Conditions: recombinant CYP, pro-luciferin dealkylation, luminescence, p450-cyp2d6; series mostly up to 57.1 µM
About 2,600 (16%) of roughly 16,000 compounds were called active. Roughly 20% stayed inconclusive and do not appear here. Calls come from the whole dose curve; as a rule, active = well fitted curve in the direction sought with a large enough effect; inconclusive = small, poorly fitted or top-dose-only effect, or effect the other way; inactive = no such curve, though single readings can be large or run the other way. A selection follows.
Permitted responses: TRUE (active), FALSE (inactive)

Here are 5 compounds together with their reported answers.
1. CC(=O)OC[C@@H]1O[C@H](C/C=N\O[C@@H](C)CN2CCCc3nc(C)c(C)cc32)C=C[C@@H]1OC(C)=O | TRUE
2. Cc1ccc(C(=O)N2C3C=CC(C3)C2(C(F)(F)F)C(F)(F)F)cc1 (stereo unspecified) | FALSE
3. CC[N+](CC)(CC)CCOc1ccc(/C=C\c2ccccc2)cc1 | TRUE
4. c1csc(CNc2ncncc2-c2ccoc2)c1 | TRUE
5. CC(=O)OC[C@@H]1O[C@H](C/C=N\O[C@@H]2O[C@H](COC(C)=O)[C@@H](OC(C)=O)[C@H](OC(C)=O)[C@H]2OC(C)=O)C=C[C@@H]1OC(C)=O | TRUE

What outcome does the record of this test show for COc1ccc(-c2cc(C3CCN(c4cc(Cl)nc(N)n4)CC3)[nH]n2)cc1 ?
FALSE

Now try O=c1[nH]c(=O)n(Cc2ccco2)c2c1C(C(F)(F)F)(C(F)(F)F)N=C(CCC1CCCCC1)N2 .
FALSE

---

Molecular target: Cytochrome P450 2D6 (Homo sapiens)
Assay: Cytochrome panel assay with activity outcomes; on activity, negative = inhibition: on the % scale 0 is the no-effect control and ±100 the full control effect
Conditions: recombinant CYP, pro-luciferin dealkylation, luminescence, p450-cyp2d6; series mostly up to 57.1 µM
Procedure: The P450 gene superfamily is involved in the metabolism and clearance of xenobiotics. This assay used various human CYP P450 isozymes to measure the dealkylation of various pro-luciferin substrates to luciferin. The luciferin is then measured by luminescence after the addition of a luciferase detection reagent. […] Inhibitors and some substrates limit the production of luciferin, and decrease measured luminescence. […] 8, Detection, 1 sec, ViewLux luminescent read […]
The campaign covered roughly 16,000 compounds. About 2,600 (16%) were called active. Another 20% or so got no clear call; they are omitted. A selection follows.
Catalogue of compounds with associated activity, negative = inhibition

Recorded results for 8 compounds are shown here.
1. O=C(O)CC[C@]1(C(=O)O)CCC(=O)c2ccccc21 | 10.4% [at 11.4 µM] (inactive)
2. CC(C)(C)c1ccc(-c2nnc(SCc3ccc(Cl)cc3)n2-c2cccc(C(F)(F)F)c2)cc1 | 7.38% [at 11.4 µM] (inactive)
3. CC1CCC(C(=O)O)([C@H](Br)C(=O)O)CC1 (stereo partly specified) | -1.57% [at 11.4 µM] (inactive)
4. Cc1cc(N2CCN(C)CC2)n2nc(-c3ccc(Cl)cc3)nc2n1 | 15% [at 11.4 µM] (inactive)
5. C[C@H]1COC(=O)[C@H](Cc2ccccc2)NC(=O)[C@@H](C)COC(=O)[C@H](Cc2ccccc2)NC1=O | 13.8% [at 11.4 µM] (inactive)
6. CC(C)C(=O)N[C@H]1CCCN1C(=O)/C=C\c1ccccc1 | -5.27% [at 11.4 µM] (inactive)
7. Nc1nccc(Nc2ccc(S(N)(=O)=O)cc2)n1 | -5.16% [at 11.4 µM] (inactive)
8. NC(N)=N/N=C\c1ccc(C2CCNCC2)cc1 | -11% [at 11.4 µM] (inactive)

Give its activity, negative = inhibition value. Item: CC(C)(C)c1ccc(NS(=O)(=O)c2ccc(N)cc2)cc1
18.9% [at 11.4 µM] (inactive)

Now try Cc1ccc(NC(=O)c2ccccc2C(=O)O)cc1C .
-8.28% [at 11.4 µM] (inactive)

Now try CC(=O)N[C@@H]1CONC1=O .
18.4% [at 11.4 µM] (inactive)
